Data provenance is the supplement of paper PMC11579375.

Tested on: 13F2 (fetal-II hepatoblastoma organoid with high liver markers)
assay-procedure: area under the viability dose-response curve (AUC) (AUC (arbitrary units, max 500 = no viability loss)); higher = less sensitive (higher viability)
test-conditions: exposure time: 120 h; concentration range: 0.1 nM - 10 µM, 6 doses
value-type: area under the viability dose-response curve
Reply with just the number.

Fill blank: measured area under the viability dose-response curve of the molecule "Oc1nc(-c2ccc(C(F)(F)F)cc2)nc2c1CSCC2" is ____.
477

Fill blank: measured area under the viability dose-response curve of the molecule "Cc1ccc(C(=O)Nc2ccc(Oc3cc4cnn(C)c4cc3-c3cn[nH]c3)c(F)c2)c(=O)n1-c1ccc(F)cc1" is ____.
466

Fill blank: measured area under the viability dose-response curve of the molecule "CNC(=O)c1cc(Oc2ccc(NC(=O)Nc3ccc(Cl)c(C(F)(F)F)c3)c(F)c2)ccn1" is ____.
430

Fill blank: measured area under the viability dose-response curve of the molecule "CN(C)/N=N/c1[nH]cnc1C(N)=O" is ____.
487

Fill blank: measured area under the viability dose-response curve of the molecule "Nc1ccn([C@@H]2O[C@H](CO)[C@@H](O)C2(F)F)c(=O)n1" is ____.
209

Fill blank: measured area under the viability dose-response curve of the molecule "COc1cccc2c1C(=O)c1c(O)c3c(c(O)c1C2=O)C[C@@](O)(C(C)=O)C[C@@H]3O[C@H]1C[C@H](N)[C@H](O)[C@H](C)O1" is ____.
253

Fill blank: measured area under the viability dose-response curve of the molecule "N#CC[C@H](C1CCCC1)n1cc(-c2ncnc3[nH]ccc23)cn1" is ____.
487

Fill blank: measured area under the viability dose-response curve of the molecule "O=C(/C=C/c1cccc(S(=O)(=O)Nc2ccccc2)c1)NO" is ____.
359

Fill blank: measured area under the viability dose-response curve of the molecule "C#Cc1cccc(Nc2ncnc3cc4c(cc23)OCCOCCOCCO4)c1" is ____.
406

Fill blank: measured area under the viability dose-response curve of the molecule CC1=C(/C=C/C(C)=C/C=C/C(C)=C/C(=O)Nc2ccc(O)cc2)C(C)(C)CCC1 [Fenretinide] is ____.
469

Fill blank: measured area under the viability dose-response curve of the molecule COc1cc(CCc2cc(NC(=O)c3ccc(N4CC(C)NC(C)C4)cc3)n[nH]2)cc(OC)c1 (centres undefined) is ____.
376

Fill blank: measured area under the viability dose-response curve of the molecule "N[C@@H](Cc1ccc(N(CCCl)CCCl)cc1)C(=O)O" is ____.
436

Fill blank: measured area under the viability dose-response curve of the molecule "NC1(c2ccc(-c3nc4ccn5c(=O)[nH]nc5c4cc3-c3ccccc3)cc2)CCC1" is ____.
395

Fill blank: measured area under the viability dose-response curve of the molecule "COc1ncc(-c2nc3c(n2C(C)C)[C@H](c2ccc(Cl)cc2)N(c2cc(Cl)cn(C)c2=O)C3=O)c(OC)n1" is ____.
246

Fill blank: measured area under the viability dose-response curve of the molecule "C=CC(=O)Nc1cc(Nc2nccc(-c3cn(C)c4ccccc34)n2)c(OC)cc1N(C)CCN(C)C" is ____.
364

Fill blank: measured area under the viability dose-response curve of the molecule "O=c1cc(CN2CCOCC2)occ1OCCCCCSc1ccnc2cc(C(F)(F)F)ccc12" is ____.
456

Fill blank: measured area under the viability dose-response curve of the molecule "CNC(=O)c1ccc(Nc2ncc(C(F)(F)F)c(NCc3nccnc3N(C)S(C)(=O)=O)n2)cc1" is ____.
442

Fill blank: measured area under the viability dose-response curve of the molecule "CC1(C)CCC(c2ccc(Cl)cc2)=C(CN2CCN(c3ccc(C(=O)NS(=O)(=O)c4ccc(N[C@H](CCN5CCOCC5)CSc5ccccc5)c(S(=O)(=O)C(F)(F)F)c4)cc3)CC2)C1" is ____.
409

Fill blank: measured area under the viability dose-response curve of the molecule "CC[C@@]1(O)C(=O)OCc2c1cc1n(c2=O)Cc2cc3c(CN(C)C)c(O)ccc3nc2-1" is ____.
239

Fill blank: measured area under the viability dose-response curve of the molecule "COCCNCc1ccc(-c2cc3nccc(Oc4ccc(NC(=O)C5(C(=O)Nc6ccc(F)cc6)CC5)cc4F)c3s2)nc1" is ____.
425

Fill blank: measured area under the viability dose-response curve of the molecule "Cc1nc(-c2cn3c(n2)-c2ccc(-c4cnn(C(C)(C)C(N)=O)c4)cc2OCC3)n(C(C)C)n1" is ____.
351

Fill blank: measured area under the viability dose-response curve of the molecule "CO[C@H]1C[C@@H]2CC[C@@H](C)[C@@](O)(O2)C(=O)C(=O)N2CCCC[C@H]2C(=O)O[C@H]([C@H](C)C[C@@H]2CC[C@@H](OC(=O)C(C)(CO)CO)[C@H](OC)C2)CC(=O)[C@H](C)/C=C(\C)[C@@H](O)[C@@H](OC)C(=O)[C@H](C)C[C@H](C)/C=C/C=C/C=C/1C" is ____.
342

Fill blank: measured area under the viability dose-response curve of the molecule "Nc1ccccc1NC(=O)c1ccc(CNC(=O)OCc2cccnc2)cc1" is ____.
429

Fill blank: measured area under the viability dose-response curve of the molecule "CC(=O)O[C@H]1C(=O)[C@@]2(C)[C@H]([C@H](OC(=O)c3ccccc3)[C@]3(O)C[C@H](OC(=O)[C@H](O)[C@@H](NC(=O)c4ccccc4)c4ccccc4)C(C)=C1C3(C)C)[C@]1(OC(C)=O)CO[C@@H]1C[C@@H]2O" is ____.
215

Fill blank: measured area under the viability dose-response curve of the molecule "Cc1cc(Nc2ncc(Cl)c(Nc3ccccc3S(=O)(=O)C(C)C)n2)c(OC(C)C)cc1C1CCNCC1" is ____.
349

Fill blank: measured area under the viability dose-response curve of the molecule "CC(C)c1cc(-c2n[nH]c(=O)n2-c2ccc3c(ccn3C)c2)c(O)cc1O" is ____.
243

###

Record form. Attribute: area under the viability dose-response curve. Fill in for each entry.
Tested on: 13F2
assay-procedure: area under the viability dose-response curve (AUC) (AUC (arbitrary units, max 500 = no viability loss)); higher = less sensitive (higher viability)
test-conditions: exposure time: 120 h; concentration range: 0.1 nM - 10 µM, 6 doses
Reply with just the number.

Fill blank: measured area under the viability dose-response curve of the compound "C=CC(=O)N1C[C@H](Nc2ncnc3[nH]ccc23)CC[C@@H]1C" is ____.
460

Fill blank: measured area under the viability dose-response curve of the compound "Cc1ccc(NC(=O)c2ccc(CN3CCN(C)CC3)cc2)cc1Nc1nccc(-c2cccnc2)n1" is ____.
498

Fill blank: measured area under the viability dose-response curve of the compound "NC(=O)c1cccc2cn(-c3ccc([C@@H]4CCCNC4)cc3)nc12" is ____.
455

Fill blank: measured area under the viability dose-response curve of the compound "CCN(c1cc(-c2ccc(CN3CCOCC3)cc2)cc(C(=O)NCc2c(C)cc(C)[nH]c2=O)c1C)C1CCOCC1" is ____.
360

Fill blank: measured area under the viability dose-response curve of the compound "Cc1c(-c2c(-c3ccc(F)o3)sc3ncnc(O[C@H](Cc4ccccc4OCc4ccnn4CC(F)(F)F)C(=O)O)c23)ccc(OCCN2CCN(C)CC2)c1Cl" is ____.
239

###

Test system: 13F2
assay-procedure: area under the viability dose-response curve (AUC) (AUC (arbitrary units, max 500 = no viability loss)); higher = less sensitive (higher viability)
test-conditions: exposure time: 120 h; concentration range: 0.1 nM - 10 µM, 6 doses
Assign labels as follows, please: true (1) for area under the viability dose-response curve below 400; false (0) for area under the viability dose-response curve equal to or exceeding 400.

Dear reviewer, please state whether S=c1nc[nH]c2nc[nH]c12 [6-Mercaptopurine] has area under the viability dose-response curve strictly beneath 400.
false (0)

Dear reviewer, please state whether "COc1ccc(Cn2ccc3ccc(C(=O)NO)cc32)cc1" has area under the viability dose-response curve strictly beneath 400.
false (0)

Dear reviewer, please state whether FC(F)(F)c1ccc(/C=C/c2nc(COc3ccc(CCCCn4ccnn4)cc3)co2)cc1 [Mubritinib] has area under the viability dose-response curve strictly beneath 400.
true (1)

Dear reviewer, please state whether CC1=C(/C=C/C(C)=C/C=C/C(C)=C\C(=O)O)C(C)(C)CCC1 [Isotretinoin] has area under the viability dose-response curve strictly beneath 400.
false (0)

Dear reviewer, please state whether "Cc1c(Cn2c(C)nc3c(C(=O)O)cc(N4CCOCC4)cc32)cccc1C(F)(F)F" has area under the viability dose-response curve strictly beneath 400.
false (0)

Dear reviewer, please state whether CN(C)C/C=C/C(=O)Nc1cc2c(Nc3ccc(F)c(Cl)c3)ncnc2cc1O[C@H]1CCOC1 [Afatinib] has area under the viability dose-response curve strictly beneath 400.
true (1)

Dear reviewer, please state whether CC(=O)O[C@@]12CO[C@@H]1C[C@H](O)[C@@]1(C)C(=O)[C@H](O)C3=C(C)[C@@H](OC(=O)[C@H](O)[C@@H](NC(=O)OC(C)(C)C)c4ccccc4)C[C@@](O)([C@@H](OC(=O)c4ccccc4)[C@H]21)C3(C)C [Docetaxel] has area under the viability dose-response curve strictly beneath 400.
true (1)

Dear reviewer, please state whether O=P(O)(NCCCl)NCCCl [Palifosfamide (Ifosfamide)] has area under the viability dose-response curve strictly beneath 400.
false (0)

Dear reviewer, please state whether Cc1c2c(nn1C)CSCc1cc(n(C)n1)CSc1cc(c3ccccc3c1)OCCCc1c(C(=O)O)n(C)c3c-2c(Cl)ccc13 [AZD5991] has area under the viability dose-response curve strictly beneath 400.
true (1)

Dear reviewer, please state whether C=CC(=O)N1CC[C@H](n2nc(C#Cc3cc(OC)cc(OC)c3)c3c(N)ncnc32)C1 [Futibatinib] has area under the viability dose-response curve strictly beneath 400.
true (1)

Dear reviewer, please state whether CNC(=O)c1ccccc1Sc1ccc2c(/C=C/c3ccccn3)n[nH]c2c1 [Axitinib] has area under the viability dose-response curve strictly beneath 400.
false (0)

Dear reviewer, please state whether CC(C)NC[C@@H](C(=O)N1CCN(c2ncnc3c2[C@H](C)C[C@H]3O)CC1)c1ccc(Cl)cc1 [Ipatasertib] has area under the viability dose-response curve strictly beneath 400.
false (0)

Dear reviewer, please state whether CC1(COc2ccc3c(c2)ncn3-c2ccc3cccc(N4CCC(N)CC4)c3n2)COC1 [Crenolanib] has area under the viability dose-response curve strictly beneath 400.
false (0)

Dear reviewer, please state whether Cc1cccc(-c2[nH]c(CNc3ccccc3F)nc2-c2ccc3ncnn3c2)n1 [Vactosertib] has area under the viability dose-response curve strictly beneath 400.
false (0)

Dear reviewer, please state whether "CCn1cc(-c2ccnc3[nH]c(-c4cccc(CN(C)C)c4)cc23)c(-c2ccc(NC(=O)N(C)C)cc2)n1" has area under the viability dose-response curve strictly beneath 400.
true (1)

Dear reviewer, please state whether CCOc1cc2ncc(C#N)c(Nc3ccc(OCc4ccccn4)c(Cl)c3)c2cc1NC(=O)/C=C/CN(C)C [Neratinib] has area under the viability dose-response curve strictly beneath 400.
true (1)

Dear reviewer, please state whether CC(C)(O)CNc1nc(Nc2ccnc(C(F)(F)F)c2)nc(-c2cccc(C(F)(F)F)n2)n1 [Enasidenib] has area under the viability dose-response curve strictly beneath 400.
false (0)

Dear reviewer, please state whether COc1cccc2c1C(=O)c1c(O)c3c(c(O)c1C2=O)C[C@@](O)(C(=O)CO)C[C@@H]3O[C@H]1C[C@H](N)[C@H](O)[C@H](C)O1 [Doxorubicin] has area under the viability dose-response curve strictly beneath 400.
true (1)

Dear reviewer, please state whether CN(Cc1cnc2nc(N)nc(N)c2n1)c1ccc(C(=O)N[C@@H](CCC(=O)O)C(=O)O)cc1 [Methotrexate] has area under the viability dose-response curve strictly beneath 400.
true (1)

Dear reviewer, please state whether CN[C@@H](C)C(=O)N[C@H](C(=O)N1CCC[C@H]1C(=O)N[C@H]1c2ccccc2C[C@H]1OCC#CC#CCO[C@@H]1Cc2ccccc2[C@@H]1NC(=O)[C@@H]1CCCN1C(=O)[C@@H](NC(=O)[C@H](C)NC)C1CCCCC1)C1CCCCC1 [AZD5582] has area under the viability dose-response curve strictly beneath 400.
false (0)

Dear reviewer, please state whether O=C(NC1CCNCC1)c1n[nH]cc1NC(=O)c1c(Cl)cccc1Cl [AT7519] has area under the viability dose-response curve strictly beneath 400.
true (1)

Dear reviewer, please state whether CCN(CC)CCNC(=O)c1c(C)[nH]c(/C=C2\C(=O)Nc3ccc(F)cc32)c1C [Sunitinib] has area under the viability dose-response curve strictly beneath 400.
false (0)

Dear reviewer, please state whether Cc1[nH]c2ccccc2c1CCNCc1ccc(/C=C/C(=O)NO)cc1 [Panobinostat] has area under the viability dose-response curve strictly beneath 400.
true (1)

Dear reviewer, please state whether CC[C@H](NC(=O)[C@H](C)NC)C(=O)N1C[C@@H](O)C[C@H]1Cc1c(-c2[nH]c3cc(F)ccc3c2C[C@@H]2C[C@H](O)CN2C(=O)[C@H](CC)NC(=O)[C@H](C)NC)[nH]c2cc(F)ccc12 [Birinapant] has area under the viability dose-response curve strictly beneath 400.
false (0)

Dear reviewer, please state whether C[C@]12CCCN1CC1=NNC(=O)c3cc(F)cc4[nH]c2c1c34 [Pamiparib] has area under the viability dose-response curve strictly beneath 400.
false (0)

Dear reviewer, please state whether CC[C@]1(O)C[C@H]2CN(CCc3c([nH]c4ccccc34)[C@@](C(=O)OC)(c3cc4c(cc3OC)N(C=O)[C@H]3[C@@](O)(C(=O)OC)[C@H](OC(C)=O)[C@]5(CC)C=CCN6CC[C@]43[C@@H]65)C2)C1 [Vincristine] has area under the viability dose-response curve strictly beneath 400.
true (1)
